B1: PCDHGA10 (parent)
chain: FHELQMQVTASDSGDPPLSSNVSL

Variants of: B1
method description: protein stability index of a GFP-peptide fusion (GPS, HEK-293T) (PSI 1-6); higher = more stable;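 also: lentivirally expressed fusions sorted by FACS into six bins by GFP to DsRed ratio, PSI derived from sequencing read proportions per bin multiplied by bin number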
conditions used: c terminus: a fixed tail appended
As shown below, each of these variants has a reported protein stability index value.
measured parameter: protein stability index

{"mut": "V22I", "reported measurement": 1.85}
{"mut": "S23H", "reported measurement": 2.14}
{"mut": "S11Y", "reported measurement": 1.47}
{"mut": "F1G", "reported measurement": 4.74}
{"mut": "G14S", "reported measurement": 2.34}
{"mut": "S11L", "reported measurement": 2.27}
{"mut": "T9P", "reported measurement": 3.32}
{"mut": "H2T", "reported measurement": 2.81}
{"mut": "S13H", "reported measurement": 2.1}
{"mut": "G14C", "reported measurement": 2.44}
{"mut": "L4Y", "reported measurement": 2.04}
{"mut": "S23V", "reported measurement": 2.05}
{"mut": "N21F", "reported measurement": 1.54}
{"mut": "M6F", "reported measurement": 1.4}
{"mut": "S13W", "reported measurement": 1.6}
{"mut": "M6V", "reported measurement": 2.56}
{"mut": "H2M", "reported measurement": 2.81}
{"mut": "L24M", "reported measurement": 2.68}
{"mut": "M6P", "reported measurement": 3.87}
{"mut": "V22L", "reported measurement": 2.71}
{"mut": "E3R", "reported measurement": 1.85}
{"mut": "V8Y", "reported measurement": 2.01}
